- TEST_METHOD_NOTES: Metabolite profile of [14C] compound (I) in rat liver microsome incubations
- Type: in vitro ADME, SD rat
- CONDITION_DESCRIPTION: (Ia) 20 μM, 15 min, 37° C., 2 mg/mL microsomal protein, 2.0 mM NADPH
MEASURE_NAME: % of Radioactivity in Microsomes, Rat (%)

Illustrative cases are given below, each with its answer.
>>> print(df.to_string())
                                   molecule  result_number
0  Cc1nc(Nc2ncc(C(=O)Nc3c(C)cccc3Cl)s2)cc(N2CCNCC2)n1            1.8
1  Cc1nc(Nc2ncc(C(=O)Nc3c(C)cccc3Cl)s2)cc(N2CCN(CCO)CC2)n1 [Parent (I), reference compound]           54.2
2  Cc1nc(Nc2ncc(C(=O)Nc3c(C)cccc3Cl)s2)cc(N2CCN(CC(=O)O)CC2)n1            0.7

[I] Cc1nc(Nc2ncc(C(=O)Nc3c(C)cccc3Cl)s2)cc(N2CC[N+]([O-])(CCO)CC2)n1
[II] Cc1nc(Nc2ncc(C(=O)Nc3c(C)cc(O)cc3Cl)s2)cc(N2CCN(CCO)CC2)n1
Input: // max by % of Radioactivity in Microsomes, Rat over [ I , II ] Answer by stating the label of the chosen item.
Output: I
(I: 37.3%, II: 4.5%)

----------
- TEST_METHOD_NOTES: Metabolite profile of [14C] compound (I) in human hepatocyte incubations
- Format: in vitro ADME
- CONDITION_DESCRIPTION: (Ia) 20 μM, 3 h, 37° C., ~2 million cells/mL; relative distribution in radiochromatographic profile
MEASURE_NAME: % of Radioactivity in Hepatocytes, Human (%)

These recorded examples may help you get a feel for the data.
>>> print(df.to_string())
                                   compound                              measure_name  result_number
0  Cc1nc(Nc2ncc(C(=O)Nc3c(C)cc(O)cc3Cl)s2)cc(N2CCN(CCO)CC2)n1  % of Radioactivity in Hepatocytes, Human            2.6
1  Cc1nc(Nc2ncc(C(=O)Nc3c(C)cccc3Cl)s2)cc(N2CCN(CC(=O)O)CC2)n1  % of Radioactivity in Hepatocytes, Human            9.2
2  Cc1nc(Nc2ncc(C(=O)Nc3c(Cl)cccc3CO)s2)cc(N2CCN(CCO)CC2)n1  % of Radioactivity in Hepatocytes, Human            2.6
3  Cc1nc(Nc2ncc(C(=O)Nc3c(C)cccc3Cl)s2)cc(N2CCN(CCO)CC2)n1 [Parent (I), reference compound]  % of Radioactivity in Hepatocytes, Human           77.7

[a] Cc1nc(Nc2ncc(C(=O)Nc3c(C)cccc3Cl)s2)cc(N2CC[N+]([O-])(CCO)CC2)n1
[b] Cc1nc(Nc2ncc(C(=O)Nc3c(C)cccc3Cl)s2)cc(N2CCNCC2)n1
Input: Return label of the item with the larger % of Radioactivity in Hepatocytes, Human. Candidates: a , b . Let me know the label of the one you choose.
Output: a
(a: 2.3%, b: 1.0%)

----------
- TEST_METHOD_NOTES: Radioactive metabolites in plasma, urine and feces after single oral dose of [14C] compound (I) to rats
- Format: in vivo, Sprague-Dawley rat
- CONDITION_DESCRIPTION: oral 15 mg/kg [14C] compound (I), plasma 4 h
MEASURE_NAME: % Distribution of radioactive metabolites in pooled plasma, Rat (4 h) (%)

In [3]: df
Out[3]:
                                   compound  result_number
0  Cc1nc(Nc2ncc(C(=O)Nc3c(C)cccc3Cl)s2)cc(N2CCNCC2)n1 [M4 (II)]            2.6

[a] Cc1nc(Nc2ncc(C(=O)Nc3c(C)cccc3Cl)s2)cc(N2CCN(CC(=O)O)CC2)n1 [M6 (IV)]
[b] Cc1nc(Nc2ncc(C(=O)Nc3c(C)cccc3Cl)s2)cc(N2CCN(CCO)CC2)n1 [Parent (I), reference compound]
[c] Cc1nc(Nc2ncc(C(=O)Nc3c(C)cccc3Cl)s2)cc(N2CC[N+]([O-])(CCO)CC2)n1 [M5 (III)]
Input: Arrange these 3 compounds in increasing order of % Distribution of radioactive metabolites in pooled plasma, Rat (4 h). List the labels in the requested order.
Output: a, c, b
(a: 2.2%, c: 18.7%, b: 52.8%)

----------
- TEST_METHOD_NOTES: Radioactive metabolites in urine and bile after IV administration of [14C] compound (I) to bile-duct cannulated monkeys
- Type: in vivo, monkey
- CONDITION_DESCRIPTION: IV infusion 2 mg/kg, urine 0-72 hr
MEASURE_NAME: Metabolites in BDC-Monkeys (0-72 hr), Urine, % Rad (% of total radioactivity in sample) (%)

>>> print(df.to_string())
                                   compound  result_number
0  Cc1nc(Nc2ncc(C(=O)Nc3c(C)cccc3Cl)s2)cc(N2CC[N+]([O-])(CCO)CC2)n1 [M5 (III)]           70.7
1  Cc1nc(Nc2ncc(C(=O)Nc3c(C)cccc3Cl)s2)cc(N2CCN(CCO)CC2)n1 [Parent (I), reference compound]            1.4
2  Cc1nc(Nc2ncc(C(=O)Nc3c(C)cc(O)cc3Cl)s2)cc(N2CCN(CCO)CC2)n1 [M20 (V)]            2.7

[A] Cc1nc(Nc2ncc(C(=O)Nc3c(C)cccc3Cl)s2)cc(N2CCN(CC(=O)O)CC2)n1 [M6 (IV)]
[B] Cc1nc(Nc2ncc(C(=O)Nc3c(Cl)cccc3CO)s2)cc(N2CCN(CCO)CC2)n1 [M24 (VI)]
Input: # returns the entry with the larger Metabolites in BDC-Monkeys (0-72 hr), Urine, % Rad (% of total radioactivity in sample); inputs A and B Write down the label of the entry you select.
Output: A

----------
- TEST_METHOD_NOTES: Radioactive metabolites in plasma, urine and feces after single oral dose of [14C] compound (I) to rats
- Type: in vivo, Sprague-Dawley rat
- CONDITION_DESCRIPTION: oral 15 mg/kg, pooled urine 0-168 hr
MEASURE_NAME: Metabolites in Urine (0-168 hr), Rat, % Rad (% of total radioactivity in sample) (%)

Reference set, count: 3
In [3]: df
Out[3]:
                                   compound  result_number
0  Cc1nc(Nc2ncc(C(=O)Nc3c(C)cc(O)cc3Cl)s2)cc(N2CCN(CCO)CC2)n1            9.9
1  Cc1nc(Nc2ncc(C(=O)Nc3c(C)cccc3Cl)s2)cc(N2CCNCC2)n1            4.4
2  Cc1nc(Nc2ncc(C(=O)Nc3c(C)cccc3Cl)s2)cc(N2CCN(CCO)CC2)n1 [Parent (I), reference compound]           11.6

[I] Cc1nc(Nc2ncc(C(=O)Nc3c(C)cccc3Cl)s2)cc(N2CC[N+]([O-])(CCO)CC2)n1
[II] Cc1nc(Nc2ncc(C(=O)Nc3c(C)cccc3Cl)s2)cc(N2CCN(CC(=O)O)CC2)n1
Input: Endpoint returns whichever of I and II has the numerically higher Metabolites in Urine (0-168 hr), Rat, % Rad (% of total radioactivity in sample). Your answer should be the label attached to the chosen record.
Output: I
(I: 52.4%, II: 6.5%)

----------
- TEST_METHOD_NOTES: Radioactive metabolites in urine and bile after IV administration of [14C] compound (I) to bile-duct cannulated monkeys
- Assay type: in vivo, monkey
- CONDITION_DESCRIPTION: IV infusion 2 mg/kg, bile 0-72 hr
MEASURE_NAME: Metabolites in BDC-Monkeys (0-72 hr), Bile, % Rad (%)

Observe how each entry below is paired with its result.
>>> print(df.to_string())
                                   compound  result_number
0  Cc1nc(Nc2ncc(C(=O)Nc3c(C)cccc3Cl)s2)cc(N2CC[N+]([O-])(CCO)CC2)n1            7.4
1  Cc1nc(Nc2ncc(C(=O)Nc3c(Cl)cccc3CO)s2)cc(N2CCN(CCO)CC2)n1            4.4
2  Cc1nc(Nc2ncc(C(=O)Nc3c(C)cccc3Cl)s2)cc(N2CCN(CC(=O)O)CC2)n1            9.4
3  Cc1nc(Nc2ncc(C(=O)Nc3c(C)cc(O)cc3Cl)s2)cc(N2CCN(CCO)CC2)n1            3.5

[I] Cc1nc(Nc2ncc(C(=O)Nc3c(C)cccc3Cl)s2)cc(N2CCN(CCO)CC2)n1 [Parent (I), reference compound]
[II] Cc1nc(Nc2ncc(C(=O)Nc3c(C)cccc3Cl)s2)cc(N2CCNCC2)n1
Input: Could you kindly indicate whether I or II has the higher Metabolites in BDC-Monkeys (0-72 hr), Bile, % Rad value? Kindly give the label for the entry you pick.
Output: I
